system: BRAF-MEK1; assay: BRAF-MEK TR-FRET assay, stabilization of MEK1 and BRAF interaction; type: binding; conditions: 4 nM BRAF, 10 nM MEK, 100 μM ATP; 1 hr at 25° C.; read-out: BRAF-MEK TR-FRET Assay (EC50, fold stabilization)
Observed Property: EC50

Known EC50 results, listed for orientation:
Entry CNS(=O)(=O)Nc1nccc(CN2C(=O)Oc3cc(Oc4nccnn4)c(F)cc3C23CCC3)c1F — recorded EC50 = < 50 nM

Looking up CNS(=O)(=O)Nc1cc(F)cc(CN2Cc3ccc(Oc4cccnn4)cc3OC2=O)c1F , I see its EC50 listed as 200 to 1000 nM

Record summary for CNS(=O)(=O)Nc1cccc(CN2Cc3ccc(Oc4ncccn4)c(F)c3OC2=O)c1F : reported EC50 = 200 to 1000 nM

Go through the list and state EC50 for each entry.
1. CNS(=O)(=O)Nc1nccc(CN2C(=O)Oc3c(ccc(Oc4ncco4)c3F)C23CCC3)c1F
2. CNS(=O)(=O)Nc1nccc(CN2C(=O)Oc3cc(Oc4ncccn4)ccc3C23CCC3)c1F
3. CNS(=O)(=O)Nc1cccc(CN2Cc3ccc(Oc4cccnn4)cc3OC2=O)c1F
4. CNS(=O)(=O)Nc1cccc(CN2C(=O)Oc3cc(OC(=O)N(C)C)ccc3[C@@H]2C)c1F
5. CN(C)C(=O)Oc1ccc2c(c1)OC(=O)N(Cc1cccc(CN3CCOC3=O)c1F)C2

1: < 50 nM; 2: 200 to 1000 nM; 3: < 50 nM; 4: 200 to 1000 nM; 5: 200 to 1000 nM

Hello, I would appreciate it if you could give EC50 for each entry below.
1. CNS(=O)(=O)Nc1cccc(CN2Cc3c(F)cc(OC(=O)N(C)C)cc3OC2=O)c1F
2. CNS(=O)(=O)Nc1cccc(CN2C(=O)Oc3cc(OC(=O)N(C)C)ccc3[C@H]2C)c1F
3. CNS(=O)(=O)Nc1cccc(CN2Cc3ccc(Oc4ncco4)c(F)c3OC2=O)c1F
4. CNS(=O)(=O)Nc1cccc(CN2C(=O)Oc3c(ccc(Oc4cccnn4)c3F)[C@@H]2C)c1F (single isomer, unassigned)

50 to 200 nM
200 to 1000 nM
200 to 1000 nM
50 to 200 nM

Can you give me EC50 for all of these, one by one?
1. CNS(=O)(=O)Nc1cccc(CN2C(=O)Oc3cc(Oc4cccnn4)ccc3C2(C)C)c1F
2. CNS(=O)(=O)Nc1cccc(CN2C(=O)Oc3c(ccc(OC(=O)N(C)C)c3F)[C@@H]2C)c1F (single isomer, unassigned)
3. CNS(=O)(=O)Nc1cccc(CN2C(=O)Oc3cc(Oc4ncco4)ccc3[C@@H]2C)c1F (single isomer, unassigned)

1: 200 to 1000 nM; 2: 200 to 1000 nM; 3: 200 to 1000 nM

Reference source: patent US20260297105A1
